- Tested on: A431
- ASSAY_EXPLANATION: LBPA endosome anti-LBPA integrated intensity (sum per cell), Z-score; higher = more LBPA staining
- TEST_CONDITIONS: compound concentration in added solution (µM; 5 µl added to 20 µl cells): 10; 18 h
Counter-ions that a name gives are not always drawn.
EXPERIMENTAL_READOUT: LBPA endosome anti-LBPA integrated intensity (z-score)
Keep the answer to the number alone.

QUERY: Find LBPA endosome anti-LBPA integrated intensity (z-score) (A431) for the entry Nc1ncnc2c1ncn2C1OC(COP(=O)(O)O)C(O)C1O (stereo not drawn) [Adenosine 5'-monophosphate monohydrate]
RESULT: -0.591

QUERY: Now give it for COc1ccc2cc(CCC(C)=O)ccc2c1 too.
RESULT: -0.302

QUERY: Now give it for N=C(N)NCc1cccc(I)c1 [Iobenguane sulfate] too.
RESULT: -0.605

QUERY: Now give it for CC[N+](C)(C)Cc1ccccc1Br [Bretylium tosylate] too.
RESULT: -0.568

QUERY: Now give it for NCCC[C@H](N)CC(=O)N[C@H]1CNC(=O)[C@H]([C@H]2C[C@H](O)NC(N)=N2)NC(=O)/C(=C/NC(N)=O)NC(=O)[C@H](CO)NC(=O)[C@H](CO)NC1=O [Viomycin sulfate] too.
RESULT: -0.57

QUERY: Now give it for CCN(CC)CCN[C@@H](C(=O)OCCC(C)C)c1ccccc1 [Camylofine chlorhydrate] too.
RESULT: -0.334

QUERY: Now give it for OCC(O)CN1CCN(c2ccccc2)CC1 (racemic) [Dropropizine (R,S)] too.
RESULT: -0.485

QUERY: Now give it for CCN(CC)CCc1nc(-c2ccccc2)no1 [Oxalamine citrate salt] too.
RESULT: -0.387

====

- System: A431
- ASSAY_EXPLANATION: whole-cell filipin (free cholesterol) integrated intensity, Z-score; higher = more cholesterol staining
- TEST_CONDITIONS: compound concentration in added solution (µM; 5 µl added to 20 µl cells): 10; 18 h
Counter-ions that a name gives are not always drawn.
Note to self: class labels come from recorded whole-cell filipin (z-score), ranges listed here: one (below -0.6), two (-0.6 to below 0.05), three (0.05 or more)

QUERY: Consider C[N+](C)(CCOc1ccccc1)Cc1ccccc1.O=C([O-])c1cc2ccccc2cc1O [Bephenium hydroxynaphthoate] . To which whole-cell filipin (z-score) class does it belong?
RESULT: two

QUERY: Now give it for CC[N+](C)(C)c1cccc(O)c1 [Edrophonium chloride] too.
RESULT: one

QUERY: Now give it for CN(C)[C@@H]1C(O)=C(C(N)=O)C(=O)[C@@]2(O)C(O)=C3C(=O)c4c(O)ccc(Cl)c4[C@@](C)(O)[C@H]3C[C@@H]12 [Chlortetracycline hydrochloride] too.
RESULT: one

QUERY: Now give it for CCN(CC)CCNC(=O)c1cc(S(C)(=O)=O)ccc1OC [Tiapride hydrochloride] too.
RESULT: two

QUERY: Now give it for CCC[C@H](N[C@@H](C)C(=O)N1[C@H](C(=O)O)C[C@@H]2CCCC[C@@H]21)C(=O)OCC [Perindopril] too.
RESULT: two

QUERY: Now give it for CCCCNC(=O)NS(=O)(=O)c1ccc(C)cc1 [Tolbutamide] too.
RESULT: two

QUERY: Now give it for O=C(O)c1ccccc1OP(=O)(O)O [Fosfosal] too.
RESULT: two

QUERY: Now give it for CCOc1nc2cccc(C(=O)O)c2n1Cc1ccc(-c2ccccc2-c2nnn[nH]2)cc1 [Candesartan] too.
RESULT: three

QUERY: Now give it for CCCC(CCC)C(=O)O [Valproic acid] too.
RESULT: three
